Consider the following compounds; for each one, report its IC90.
# Tested on: Trypanosoma brucei
# assay.protocol: Antitrypanosomal activity against trypomastigote form of Trypanosoma brucei after 72 hrs by Alamar blue assay
# Assay type: functional, organism-based
Just the number in µg/mL, nothing appended.

Requested read-out: IC90. Entry: CCCCCCCCCCCCCCC1=NC(C)CCC1 (centres undefined)
6.8

Requested read-out: IC90. Entry: CCCCCCCCCCCCCCCC1=NC(C)CCC1 (centres undefined)
3.6

Requested read-out: IC90. Entry: CCCCCCCCCCCCCCCCC1=NC(C)CCC1 (centres undefined)
6.5

Requested read-out: IC90. Entry: NCCCC(N)(C(=O)O)C(F)F (centres undefined) [EFLORNITHINE]
12.1
